Sequence of the target: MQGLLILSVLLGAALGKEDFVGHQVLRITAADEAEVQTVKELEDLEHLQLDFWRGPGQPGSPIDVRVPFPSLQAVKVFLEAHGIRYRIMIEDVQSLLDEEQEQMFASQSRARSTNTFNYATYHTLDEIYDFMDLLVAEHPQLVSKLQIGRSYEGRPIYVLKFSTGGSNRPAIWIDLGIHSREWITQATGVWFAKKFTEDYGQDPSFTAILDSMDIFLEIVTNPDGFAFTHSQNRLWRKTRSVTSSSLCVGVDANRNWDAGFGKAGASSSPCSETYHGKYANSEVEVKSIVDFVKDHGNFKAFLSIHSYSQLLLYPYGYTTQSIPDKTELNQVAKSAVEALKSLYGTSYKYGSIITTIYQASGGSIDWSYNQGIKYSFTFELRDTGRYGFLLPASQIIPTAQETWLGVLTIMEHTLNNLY
Lab note: compare Ki with 0.6 µM, writing Fulfilled if less and Not fulfilled if equal or more.

1. O=C(O)C(CS)Cc1cccc2ccccc12 (stereo not drawn) | Fulfilled
2. Cc1ccccc1CC(CS)C(=O)O (stereo not drawn) | Fulfilled
3. CC(C)c1ccc(CC(CS)C(=O)O)cc1 (stereo not drawn) | Not fulfilled
4. CC(C)(C)c1ccc(CC(CS)C(=O)O)cc1 (stereo not drawn) | Not fulfilled
5. Cc1ccc(CC(CS)C(=O)O)cc1C (stereo not drawn) | Fulfilled
6. O=C(O)C(CS)CC1CCCCC1 (stereo not drawn) | Not fulfilled
7. Cc1cccc(CC(CS)C(=O)O)c1 (stereo not drawn) | Fulfilled
